Hello, the source for this data is patent US20180008587A1, in case you need it.

Each entry below lists one item and its recorded IC50 value.
# system tested: F876L mutant Androgen Receptor (AR-F876L) (Homo sapiens, UniProt P10275, F877L)
# Construct: expressed in transfected cells; host or cells: LNCaP (LNCaP F876L)
# Sequence (P10275 whole entry F877L): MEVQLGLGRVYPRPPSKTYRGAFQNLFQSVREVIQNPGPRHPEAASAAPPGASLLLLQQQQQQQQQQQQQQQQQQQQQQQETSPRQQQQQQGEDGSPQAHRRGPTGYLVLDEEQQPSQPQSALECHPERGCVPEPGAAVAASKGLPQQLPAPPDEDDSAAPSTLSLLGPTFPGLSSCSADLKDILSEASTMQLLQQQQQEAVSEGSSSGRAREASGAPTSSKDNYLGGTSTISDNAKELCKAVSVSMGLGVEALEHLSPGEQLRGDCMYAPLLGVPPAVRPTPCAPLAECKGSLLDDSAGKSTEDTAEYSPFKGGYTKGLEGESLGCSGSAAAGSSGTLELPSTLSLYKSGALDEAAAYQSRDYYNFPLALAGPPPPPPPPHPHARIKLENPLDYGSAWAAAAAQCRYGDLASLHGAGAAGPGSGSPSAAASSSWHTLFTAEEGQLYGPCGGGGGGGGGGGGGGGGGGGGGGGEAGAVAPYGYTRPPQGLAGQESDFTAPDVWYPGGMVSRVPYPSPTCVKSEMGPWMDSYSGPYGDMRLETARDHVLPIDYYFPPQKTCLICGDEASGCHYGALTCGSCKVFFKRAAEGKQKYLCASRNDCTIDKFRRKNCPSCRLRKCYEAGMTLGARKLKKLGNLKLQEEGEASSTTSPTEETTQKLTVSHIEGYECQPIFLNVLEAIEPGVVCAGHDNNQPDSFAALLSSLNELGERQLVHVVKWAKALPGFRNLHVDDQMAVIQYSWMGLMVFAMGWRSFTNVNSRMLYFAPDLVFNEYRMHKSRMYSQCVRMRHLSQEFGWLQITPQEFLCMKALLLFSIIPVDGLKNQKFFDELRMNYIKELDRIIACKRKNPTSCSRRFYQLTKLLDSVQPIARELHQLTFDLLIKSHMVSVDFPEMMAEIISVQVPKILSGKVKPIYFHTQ
# measurement protocol: LNCaP-AR-F876L ANT reporter assay (ARE firefly luciferase, antagonist mode)
# Format: cell-based
# assay context: read-out: LNCaP-AR-F876L ANT pIC50 (converted)
Number in nM, nothing else.

Record excerpt, results attached:
Looking up CCN1CCC(Oc2ccc(N3C(=S)N(c4cnc(C#N)c(C)c4)C(=O)C34CCC4)cc2)CC1 , I found its IC50 recorded as 380

Looking up N#Cc1ncc(N2C(=O)C3(CCC3)N(c3cccc4ccccc34)C2=S)cc1C(F)(F)F , I found its IC50 recorded as 617

Looking up CS(=O)(=O)N1CCC(Oc2ccc(N3C(=S)N(c4cnc(C#N)c(C(F)(F)F)c4)C(=O)C34CCC4)cc2)CC1 , I found its IC50 recorded as 437

Looking up N#Cc1ncc(N2C(=O)C3(CCC3)N(c3ccc(C(N)=O)c(F)c3)C2=S)cc1C(F)(F)F , I found its IC50 recorded as 427

Looking up N#Cc1ncc(N2C(=O)C3(CCC3)N(c3ccc(OC4CCN(CCO)CC4)cc3)C2=S)cc1C(F)(F)F , I found its IC50 recorded as 200

Next:
Looking up Cc1cc(N2C(=O)C3(CCC3)N(c3ccc(C(=O)NCc4cccs4)c(F)c3)C2=S)cnc1C#N , I found its IC50 recorded as 490

Looking up Cc1ccc(CNC(=O)c2ccc(N3C(=S)N(c4cnc(C#N)c(C(F)(F)F)c4)C(=O)C34CCC4)cc2F)o1 , I found its IC50 recorded as 891

Looking up CNC(=O)c1ccc(N2C(=S)N(c3cnc(C#N)c(C(F)F)c3)C(=O)C23CCC3)cc1F , I found its IC50 recorded as 1550

Looking up N#Cc1ncc(N2C(=O)C3(CCC3)N(c3ccc(C(=O)NCc4cccs4)c(F)c3)C2=S)cc1C(F)(F)F , I found its IC50 recorded as 676

Looking up N#Cc1ncc(N2C(=O)C3(CCC3)N(c3ccc(C(=O)NCCc4ccncc4)c(F)c3)C2=S)cc1C(F)(F)F , I found its IC50 recorded as 112

Looking up N#Cc1ncc(N2C(=O)C3(CCC3)N(c3ccc(C(=O)NCCc4ccccn4)c(F)c3)C2=S)cc1C(F)(F)F , I found its IC50 recorded as 46.8

Looking up N#Cc1ncc(N2C(=O)C3(CCC3)N(c3ccc(OC4CCOCC4)cc3)C2=S)cc1C(F)(F)F , I found its IC50 recorded as 331

Looking up Cc1cc(N2C(=O)C3(CCC3)N(c3ccc(C(=O)Nc4ccc(F)cc4)c(F)c3)C2=S)cnc1C#N , I found its IC50 recorded as 479

Looking up N#Cc1ncc(N2C(=O)C3(CCC3)N(c3ccc(OCCN4CCNCC4)c(F)c3)C2=S)cc1C(F)(F)F , I found its IC50 recorded as 490

Looking up Cc1cc(N2C(=O)C3(CCC3)N(c3ccc(O)cc3)C2=S)cnc1C#N , I found its IC50 recorded as 398

Looking up Cc1cc(N2C(=O)C(C)(C)N(c3ccc(OC4CCN(C)CC4)cc3)C2=S)cnc1C#N , I found its IC50 recorded as 513

###

# system tested: F876L mutant Androgen Receptor (AR-F876L) (Homo sapiens, UniProt P10275, F877L)
# Construct: expressed in transfected cells; host or cells: LNCaP (LNCaP F876L)
# measurement protocol: LNCaP-AR-F876L AG reporter assay (ARE firefly luciferase, agonist mode)
# Type: cell-based
# assay context: maximum % stimulation (agonist response) over tested concentration range; read-out: LNCaP-AR-F876L AG MAX % Stim
readout: Emax (%)
Number in %, nothing else.

Looking up N#Cc1ncc(N2C(=O)C3(CCC3)N(c3ccc(F)cc3)C2=S)cc1C(F)(F)F [Cpd 102] , I found its Emax recorded as 1.9

Next:
Looking up N#Cc1ncc(N2C(=O)C3(CCC3)N(c3ccc(C(=O)NCCc4ccccn4)c(F)c3)C2=S)cc1C(F)(F)F [Cpd 15] , I found its Emax recorded as 0

Looking up N#Cc1ncc(N2C(=O)C3(CCC3)N(c3ccc(Oc4ncccn4)cc3)C2=S)cc1C(F)(F)F [Cpd 107] , I found its Emax recorded as 2.4

Looking up N#Cc1ncc(N2C(=O)C3(CCC3)N(c3ccc(C(=O)Nc4ccccc4)c(F)c3)C2=S)cc1C(F)(F)F [Cpd 73] , I found its Emax recorded as 0.6

###

Each entry below lists one item and its recorded IC50 value.
# system tested: F876L mutant Androgen Receptor (AR-F876L) (Homo sapiens, UniProt P10275, F877L)
# Construct: expressed in transfected cells; host or cells: LNCaP (LNCaP F876L)
# measurement protocol: LNCaP-AR-F876L ANT reporter assay (ARE firefly luciferase, antagonist mode)
# Format: cell-based
# assay context: read-out: LNCaP-AR-F876L ANT pIC50 (converted)
Number in nM, nothing else.

Record excerpt, results attached:
Looking up CNC(=O)c1ccc(N2C(=S)N(c3cnc(C#N)c(C)c3)C(=O)C23CCC3)cc1C , I found its IC50 recorded as 417

Looking up COc1cc(F)ccc1N1C(=S)N(c2cnc(C#N)c(C(F)(F)F)c2)C(=O)C12CCC2 , I found its IC50 recorded as 631

Looking up CN1CCC(NC(=O)c2ccc(N3C(=S)N(c4cnc(C#N)c(C(F)(F)F)c4)C(=O)C34CCC4)cc2F)CC1 , I found its IC50 recorded as 741

Looking up Cc1cc(N2C(=O)C3(CCC3)N(c3ccc(C(=O)Nc4ccnn4C)c(F)c3)C2=S)cnc1C#N , I found its IC50 recorded as 437

Looking up N#Cc1ncc(N2C(=O)C3(CCC3)N(c3ccc(OC(F)(F)F)cc3)C2=S)cc1C(F)(F)F , I found its IC50 recorded as 229

Looking up N#Cc1ncc(N2C(=O)C3(CCC3)N(c3ccc(C(F)(F)F)cc3)C2=S)cc1C(F)(F)F , I found its IC50 recorded as 245

Next:
Looking up Cc1cc(N2C(=O)C3(CCC3)N(c3ccc(C(=O)Nc4ccccc4F)c(F)c3)C2=S)cnc1C#N , I found its IC50 recorded as 295

Looking up N#Cc1ncc(N2C(=O)C3(CCC3)N(c3ccc4ccncc4c3)C2=S)cc1C(F)(F)F , I found its IC50 recorded as 234

###

# system tested: wild-type Androgen Receptor (AR-wt) (Homo sapiens, UniProt P10275)
# Construct: expressed in transfected cells; host or cells: LNCaP (LNCaP AR (cs))
# measurement protocol: LNCaP-AR-wt ANT reporter assay (ARE firefly luciferase, antagonist mode)
# Assay type: cell-based
# assay context: antagonist mode, 400 pM R-1881 challenge; −Log10(IC50 [Molar]); read-out: LNCaP-AR-wt ANT pIC50 (converted)
readout: IC50 (µM)
Number in µM, nothing else.

Looking up N#Cc1ncc(N2C(=O)C3(CCC3)N(c3ccc(Oc4ncccn4)cc3)C2=S)cc1C(F)(F)F , I found its IC50 recorded as 0.562

Looking up Cc1cc(N2C(=O)C3(CCC3)N(c3ccc(C(=O)NC4CCOCC4)c(F)c3)C2=S)cnc1C#N , I found its IC50 recorded as 2.24

###

# system tested: wild-type Androgen Receptor (AR-wt) (Homo sapiens)
# Construct: expressed in transfected cells; host or cells: LNCaP (LNCaP AR (cs))
# measurement protocol: LNCaP-AR-wt AG reporter assay (ARE firefly luciferase, agonist mode)
# Format: cell-based
# assay context: maximum % stimulation (agonist response) over tested concentration range; read-out: LNCaP-AR-wt AG MAX % Stim
readout: Emax (%)
Number in %, nothing else.

Record excerpt, results attached:
Looking up CN1CCN(Cc2ccc(N3C(=S)N(c4cnc(C#N)c(C(F)(F)F)c4)C(=O)C34CCC4)cc2)CC1 , I found its Emax recorded as 0.1

Looking up N#Cc1ncc(N2C(=O)C3(CCC3)N(c3ccc(C(=O)NCc4cnccn4)c(F)c3)C2=S)cc1C(F)(F)F , I found its Emax recorded as 0.1

Next:
Looking up CS(=O)(=O)N1CCC(Oc2ccc(N3C(=S)N(c4cnc(C#N)c(C(F)(F)F)c4)C(=O)C34CCC4)cc2)CC1 , I found its Emax recorded as 2.2

Looking up CCOC(=O)CNC(=O)c1ccc(N2C(=S)N(c3cnc(C#N)c(C(F)(F)F)c3)C(=O)C23CCC3)cc1F , I found its Emax recorded as -0.2

Looking up COc1ccc(N2C(=S)N(c3cnc(C#N)c(C)c3)C(=O)C23CCC3)cc1 , I found its Emax recorded as 0.9

###

Each entry below lists one item and its recorded Emax value.
# system tested: F876L mutant Androgen Receptor (AR-F876L) (Homo sapiens, UniProt P10275, F877L)
# Construct: expressed in transfected cells; host or cells: LNCaP (LNCaP F876L)
# measurement protocol: LNCaP-AR-F876L AG reporter assay (ARE firefly luciferase, agonist mode)
# Type: cell-based
# assay context: maximum % stimulation (agonist response) over tested concentration range; read-out: LNCaP-AR-F876L AG MAX % Stim
Number in %, nothing else.

Record excerpt, results attached:
Looking up N#Cc1ncc(N2C(=O)C3(CCC3)N(c3ccc(OCCN4CCNCC4)c(F)c3)C2=S)cc1C(F)(F)F , I found its Emax recorded as 2.3

Looking up N#Cc1ncc(N2C(=O)C3(CCC3)N(c3ccc(C(=O)NCCc4cccnc4)c(F)c3)C2=S)cc1C(F)(F)F , I found its Emax recorded as 0.8

Looking up CNC(=O)c1ccc(N2C(=S)N(c3cnc(C#N)c(C)c3)C(=O)C23CCC3)cc1OC , I found its Emax recorded as 3.5

Looking up N#Cc1ncc(N2C(=O)C3(CCC3)N(c3ccc(OCCN4CCCC4)c(F)c3)C2=S)cc1C(F)(F)F , I found its Emax recorded as 0.1

Next:
Looking up Cc1cc(N2C(=O)C3(CCC3)N(c3ccc(C(=O)Nc4ccccc4F)c(F)c3)C2=S)cnc1C#N , I found its Emax recorded as -0.1

Looking up N#Cc1ncc(N2C(=O)C3(CCC3)N(c3ccc(OC4CCNCC4)cc3)C2=S)cc1C(F)(F)F , I found its Emax recorded as 0

Looking up CNC(=O)c1ccc(N2C(=S)N(c3cnc(C#N)c(C(F)F)c3)C(=O)C23CCC3)cc1F , I found its Emax recorded as 0.3

Looking up CN(CCCNC(=O)c1ccc(N2C(=S)N(c3cnc(C#N)c(C(F)(F)F)c3)C(=O)C23CCC3)cc1F)C1CCCC1 , I found its Emax recorded as 0.7

Looking up N#Cc1ncc(N2C(=O)C3(CCC3)N(c3ccc(OCCc4ncccn4)c(F)c3)C2=S)cc1C(F)(F)F , I found its Emax recorded as 0.4

Looking up N#Cc1ncc(N2C(=O)C3(CCC3)N(c3ccc(C(=O)NCCN4CCOCC4)c(F)c3)C2=S)cc1C(F)(F)F , I found its Emax recorded as 0.1

Looking up Cc1cc(N2C(=O)C3(CCC3)N(c3ccc(C(=O)Nc4cccc(Cl)c4)c(F)c3)C2=S)cnc1C#N , I found its Emax recorded as 1

Looking up N#Cc1ncc(N2C(=O)C3(CCC3)N(c3cccc(F)c3)C2=S)cc1C(F)(F)F , I found its Emax recorded as 1.4

Looking up CN1CCC(Oc2ccc(N3C(=S)N(c4cnc(C#N)c(C(F)(F)F)c4)C(=O)C34CCC4)c(F)c2)CC1 , I found its Emax recorded as 0.5
